Tested on: human urinary bladder cancer cell line SW780
protocol_description: Cytotoxicity assay with cancer cell lines, SW780 (Example 13)
Format: cell-based
condition_set: SW780, 72 h, read-out: Cytotoxicity (IC50, nM) SW-780
recorded_endpoint: IC50 (nM)
Numbers only, in nM.

Q) // lookup IC50 for CCc1c2c(cc3ccc(O)cc13)-c1cc3c(c(=O)n1C2)COC(=O)[C@]3(O)CC [SN-38]
A) 38

* * *

protocol_description: in vivo
condition_set: mouse, Tumor/Plasma Ratio, Tissue Distribution Data for SDC-TRAP-0154, time […]
recorded_endpoint: Kp

Q) Query (compound): CCNC(=O)c1nnc(-c2cc(C(C)C)c(O)cc2O)n1-c1ccc(Oc2ccc(C(=O)N3CCC(C(=O)OC4(CC)C(=O)OCc5c4cc4n(c5=O)Cc5c-4nc4ccc(O)cc4c5CC)CC3)cc2)cc1 (stereo not shown) ; field requested: Kp
A) 0.01

* * *

protocol_description: in vivo
condition_set: mouse, Tumor/Plasma Ratio, Tissue Distribution Data for SDC-TRAP-0056, time 6 h
recorded_endpoint: Kp
Answers are plain numbers.

Q) Entry under review: CCc1c2c(nc3ccc(O)cc13)-c1cc3c(c(=O)n1C2)COC(=O)C3(CC)OC(=O)CN1CCN(c2ccc(-n3c(O)nnc3-c3cc(C(C)C)c(O)cc3O)cc2)CC1 (stereo not shown) . Reported Kp?
A) 1.28

* * *

What Kp at 24 h was measured for each of the following?
protocol_description: Tissue distribution of SDC-TRAPs in tumor-bearing mice: plasma, tumor, heart (Examples 14-15)
condition_set: mouse, in vivo
Give bare numbers.

Recorded Kp at 24 h, per entry:
CCc1c2c(nc3ccc(OC(=O)N4CCN(Cc5ccc(-n6c(O)nnc6-c6cc(C(C)C)c(O)cc6O)cc5)CC4)cc13)-c1cc3c(c(=O)n1C2)COC(=O)C3(O)CC (stereo not shown) ... 40.3
CCNC(=O)c1nnc(-c2cc(C(C)C)c(O)cc2O)n1-c1ccc(CN2CCC(C(=O)N3CCN(c4cc(C)c(OC(=O)Nc5cccc6c5CN(C5CCC(=O)NC5=O)C6=O)c(C)c4)CC3)CC2)cc1 (stereo not shown) ... 5.5
CC(C)c1cc(-c2nnc(O)n2-c2ccc(CN3CCN(C(=O)Oc4ccc(COC(=O)Nc5cccc6c5CN(C5CCC(=O)NC5=O)C6=O)cc4)CC3)c(F)c2)c(O)cc1O (stereo not shown) ... 407

# context switch: different compound, same Kp at 24 h
Q) So what's the measured Kp at 24 h for this one? COc1ccc(-c2cnoc2-c2cc(OC)c(OC)c(OC)c2)cc1OC(=O)N1CCN(Cc2ccc(-n3c(O)nnc3-c3cc(C(C)C)c(O)cc3O)cc2)CC1
A) 300

* * *

protocol_description: in vivo
condition_set: mouse, Tumor/Plasma Ratio
Hi there, I'd appreciate the recorded Kp at 24 h for every entry that follows.

CCc1c2c(nc3ccc(OC(=O)N4CCC(CCn5ccc6cc(-n7c(O)nnc7-c7cc(C(C)C)c(O)cc7O)ccc65)CC4)cc13)-c1cc3c(c(=O)n1C2)COC(=O)[C@]3(O)CC ... 30.1

Q) Requested field: Kp at 24 h. Item: CC(C)c1cc(-c2nnc(O)n2-c2ccc(CC3CCN(CC(=O)Nc4cccc5c4CN(C4CCC(=O)NC4=O)C5=O)CC3)cc2)c(O)cc1O (centres unmarked)
A) 251

* * *

protocol_description: in vivo
condition_set: mouse, Tumor/Plasma Ratio
recorded_endpoint: Kp at 1 h
Numbers only.

CCc1c2c(cc3ccc(O)cc13)-c1cc3c(c(=O)n1C2)COC(=O)[C@]3(O)CC ... 0.07

Now look at this entry.
Q) Name the recorded Kp at 1 h for CC(C)c1cc(-c2nnc(O)n2-c2ccc(CC3CCN(CC(=O)Nc4cccc5c4CN(C4CCC(=O)NC4=O)C5=O)CC3)cc2)c(O)cc1O (centres unmarked) .
A) 0.21

* * *

protocol_description: Tissue distribution of SDC-TRAPs in tumor-bearing mice: plasma, tumor, heart (Examples 14-15)
condition_set: mouse, in vivo
Please respond with reported concentration at 1 h for every item in the list.
Answers are plain numbers, in µM.

CCNC(=O)c1nnc(-c2cc(C(C)C)c(O)cc2O)n1-c1ccc(CN2CCC(C(=O)N3CCN(c4cc(C)c(OC(=O)Nc5cccc6c5CN(C5CCC(=O)NC5=O)C6=O)c(C)c4)CC3)CC2)cc1 (centres unmarked) ... 211

Q) Query: concentration at 1 h; subject: CC(C)c1cc(-c2nnc(O)n2-c2ccc(CN3CCN(C(=O)Oc4ccc(COC(=O)Nc5cccc6c5CN(C5CCC(=O)NC5=O)C6=O)cc4)CC3)c(F)c2)c(O)cc1O (centres unmarked)
A) 32.2

* * *

Record form. Attribute: concentration at 6 h. Fill in for each entry.
protocol_description: Tissue distribution of SDC-TRAPs in tumor-bearing mice: plasma, tumor, heart (Examples 14-15)
condition_set: mouse, in vivo
The reply should consist of the numeric value with the unit placed after it.

Please report concentration at 6 h for every entry that follows.
1. CCNC(=O)c1nnc(-c2cc(C(C)C)c(O)cc2O)n1-c1ccc(CN2CCC(C(=O)N3CCN(c4cc(C)c(OC(=O)Nc5cccc6c5CN(C5CCC(=O)NC5=O)C6=O)c(C)c4)CC3)CC2)cc1 (stereo not shown)
2. CC(C)c1cc(-c2nnc(O)n2-c2ccc(CN3CCN(C(=O)Oc4ccc(COC(=O)Nc5cccc6c5CN(C5CCC(=O)NC5=O)C6=O)cc4)CC3)c(F)c2)c(O)cc1O (stereo not shown)
3. CCc1c2c(nc3ccc(OC(=O)N4CCN(Cc5ccc(-n6c(O)nnc6-c6cc(C(C)C)c(O)cc6O)cc5)CC4)cc13)-c1cc3c(c(=O)n1C2)COC(=O)C3(O)CC (stereo not shown)
4. CCc1c2c(nc3ccc(OC(=O)N4CCN(c5ccc(-n6c(O)nnc6-c6cc(C(C)C)c(O)cc6O)cc5)CC4)cc13)-c1cc3c(c(=O)n1C2)COC(=O)C3(O)CC (stereo not shown)

A)
1. 7.23 µM
2. 1.21 µM
3. 5.88 µM
4. 1.88 µM

* * *

protocol_description: in vivo
condition_set: mouse, Tumor/Plasma Ratio, Tissue Distribution Data for SDC-TRAP-0154, time 48 h
recorded_endpoint: Kp
Numbers only.

Q) Using the record for CCNC(=O)c1nnc(-c2cc(C(C)C)c(O)cc2O)n1-c1ccc(Oc2ccc(C(=O)N3CCC(C(=O)OC4(CC)C(=O)OCc5c4cc4n(c5=O)Cc5c-4nc4ccc(O)cc4c5CC)CC3)cc2)cc1 (stereo not shown) [SDC-TRAP-0154] , report its Kp.
A) 86

* * *

protocol_description: Tissue distribution of SDC-TRAPs in tumor-bearing mice: plasma, tumor, heart (Examples 14-15)
condition_set: mouse, in vivo
recorded_endpoint: Kp at 12 h
Answers are plain numbers.

CCc1c2c(nc3ccc(OC(=O)N4CCN(Cc5ccc(-n6c(O)nnc6-c6cc(C(C)C)c(O)cc6O)cc5)CC4)cc13)-c1cc3c(c(=O)n1C2)COC(=O)C3(O)CC (centres unmarked) ... 2.2

The record that follows has no Kp at 12 h shown yet.
Q) What Kp at 12 h value was documented for this compound, CCc1c2c(nc3ccc(OC(=O)N4CCN(c5ccc(-n6c(O)nnc6-c6cc(C(C)C)c(O)cc6O)cc5)CC4)cc13)-c1cc3c(c(=O)n1C2)COC(=O)C3(O)CC (centres unmarked) ?
A) 8.02

* * *

What Kp at […] was measured for each of the following?
protocol_description: in vivo
condition_set: mouse, Tumor/Plasma Ratio
Answers are plain numbers.

Some compounds with recorded Kp at […]:
CCc1c2c(nc3ccc(OC(=O)N4CCC(CCn5ccc6cc(-n7c(O)nnc7-c7cc(C(C)C)c(O)cc7O)ccc65)CC4)cc13)-c1cc3c(c(=O)n1C2)COC(=O)[C@]3(O)CC ... 0.0122
CCc1c2c(cc3ccc(O)cc13)-c1cc3c(c(=O)n1C2)COC(=O)[C@]3(O)CC ... 0.01

Q) Which Kp at […] reading was recorded for the compound CC(C)c1cc(-c2nnc(O)n2-c2ccc(CC3CCN(CC(=O)Nc4cccc5c4CN(C4CCC(=O)NC4=O)C5=O)CC3)cc2)c(O)cc1O (stereo not drawn) ?
A) 0.03

* * *

protocol_description: Artificial membrane permeability assay (PAMPA) (Example 36)
Assay type: in vitro ADME
condition_set: same protocol, the 56th table
recorded_endpoint: Papp at 5 h
Remember to follow the number with its unit.

Q) I would be grateful if you could share the reported Papp at 5 h for CCc1c2c(cc3ccc(O)cc13)-c1cc3c(c(=O)n1C2)COC(=O)[C@]3(O)CC [SN-38] .
A) 1.87 ×10⁻⁶ cm/s

* * *

Test system: HER2
protocol_description: HER2 degradation in BT-474 cells (Example 3, Western blot / in-cell imaging)
Assay type: cell-based, human
condition_set: Homo sapiens, BT-474; read-out: IC50 of in vitro HER2 assays
recorded_endpoint: IC50

Q) Record request: IC50 value, item CC(C)c1cc(-c2n[nH]c(=O)n2-c2ccc3c(ccn3C)c2)c(O)cc1O [ganetespib, reference compound]
A) ~30 nM
